# Protocol notes: Half life of the compound under in-vacuo condition
# Type: physicochemical
Metric: half-life

Qu. Entry under review: `O.O=C1OCCN1/N=C/c1cc(O)c([N+](=O)[O-])o1` . Reported half-life?
Ans. > 26 days

###

# Protocol notes: Dissociation constant, pKa of the compound by potentiometric titration analysis
# Type: physicochemical
Metric: pKa
Field format: numeric only.

Qu. Entry under review: `O.O.O=C1OCCN1/N=C/c1cc(O)c([N+](=O)[O-])o1` . Reported pKa?
Ans. 2.7

###

# Protocol notes: Half life of the compound under atmospheric pressure condition
# Assay type: physicochemical
Metric: half-life (h)
Could you give me the number in h? Just the number is fine.

Qu. Entry under review: `O.O=C1OCCN1/N=C/c1cc(O)c([N+](=O)[O-])o1` . Reported half-life?
Ans. 120
